This section presents binders with their documented kon values.
Target: T1, monomeric human BCMA (human, UniProt Q02223 1-54, limits assumed)
T1 construct: also called monomeric BCMA antigen
T1 sequence: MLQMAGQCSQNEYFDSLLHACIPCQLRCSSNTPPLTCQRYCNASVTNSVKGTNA
Test: SPR, monomeric human BCMA
Please provide the amount together with its unit, number first.

BCMB129 (antibody, human IgG4 S228P, lambda, F234A L235A, V domains shown, IgG4 S228P, L234A, L235A; also called BCBM129) VH: QLQLQESGPGLVKPSETLSLTCTVSGGSISSGSYFWGWIRQPPGKGLEWIGSIYYSGSTYYNPSLKSRVTISVDTSKNQFSLKLSSVTAADTAVYYCARHDGAVAGLFDYWGQGTLVTVSS VL: SYVLTQPPSVSVAPGQTARITCGGNNIGSKSVHWYQQPPGQAPVVVVYDDSDRPSGIPERFSGSNSGNTATLTISRVEAGDEAVYYCQVWDSSSDHVVFGGGTKLTVLG = 1.54e+06 M⁻¹ s⁻¹
BCMB177 (antibody, human IgG4 S228P, lambda, F234A L235A, V domains shown, IgG4 S228P, L234A, L235A; also called BCBM177) VH: QLQLQESGPGLVKPSETLSLTCTVSGGSISSSSYFWGWIRQPPGKGLEWIGSIYYSGRTYYNPSLKSRVTISVDTSKNQFSLKLSSVTAADTAVYYCARHDGATAGLFDYWGQGTLVTVSS VL: SYVLTQPPSVSVAPGQTARITCGGNNIGSKSVHWYQQPPGQAPVVVVYDDSDRPSGIPERFSGSNSGNTATLTISRVEAGDEAVYYCQVWDSSSDHVVFGGGTKLTVLG = 2.8e+06 M⁻¹ s⁻¹
BCMB128 (antibody, human IgG4 S228P, lambda, F234A L235A, V domains shown, IgG4 S228P, L234A, L235A; also called BCBM128) VH: QLQLQESGPGLVKPSETLSLTCTVSGGSISSGSYFWGWIRQPPGKGLEWIGSIYYSGITYYNPSLKSRVTISVDTSKNQFSLKLSSVTAADTAVYYCARHDGATAGLFDYWGQGTLVTVSS VL: SYVLTQPPSVSVAPGQTARITCGGNNIGSKSVHWYQQPPGQAPVVVVYDDSDRPSGIPERFSGSNSGNTATLTISRVEAGDEAVYYCQVWDSSSDHVVFGGGTKLTVLG = 4.2e+06 M⁻¹ s⁻¹
BCMB123 (antibody, human IgG4 S228P, lambda, F234A L235A, V domains shown, IgG4 S228P, L234A, L235A; also called BCBM123) VH: QLQLQESGPGLVKPSETLSLTCTVSGGSISSSSYFWGWIRQPPGKGLEWIGSIYYSGITYYNPSLKSRVTISVDTSKNQFSLKLSSVTAADTAVYYCARHDGAVAGLFDYWGQGTLVTVSS VL: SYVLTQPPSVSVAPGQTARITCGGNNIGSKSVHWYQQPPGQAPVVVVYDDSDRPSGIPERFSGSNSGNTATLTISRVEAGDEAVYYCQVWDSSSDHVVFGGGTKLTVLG = 2.14e+06 M⁻¹ s⁻¹

Now let's try a different one.
Prompt: # kon lookup, item BCMB176 (antibody, human IgG4 S228P, lambda, F234A L235A, V domains shown, IgG4 S228P, L234A, L235A; also called BCBM176) VH: QLQLQESGPGLVKPSETLSLTCTVSGGSISSSSYFWGWIRQPPGKGLEWIGSIYYSGITYYNPSLKSRVTISVDTSKNQFSLKLSSVTAADTAVYYCARHDGATAGLFDYWGQGTLVTVSS VL: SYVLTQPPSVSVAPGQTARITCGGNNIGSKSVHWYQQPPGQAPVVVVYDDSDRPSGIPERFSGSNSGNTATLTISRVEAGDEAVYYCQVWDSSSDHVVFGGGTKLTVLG
Completion: 4e+06 M⁻¹ s⁻¹
